Ref: paper PMC3313490

- testedSystem: porcine liver PMPMEase (Sus scrofa, UniProt Q29550)
- Sequence (Q29550 19-566): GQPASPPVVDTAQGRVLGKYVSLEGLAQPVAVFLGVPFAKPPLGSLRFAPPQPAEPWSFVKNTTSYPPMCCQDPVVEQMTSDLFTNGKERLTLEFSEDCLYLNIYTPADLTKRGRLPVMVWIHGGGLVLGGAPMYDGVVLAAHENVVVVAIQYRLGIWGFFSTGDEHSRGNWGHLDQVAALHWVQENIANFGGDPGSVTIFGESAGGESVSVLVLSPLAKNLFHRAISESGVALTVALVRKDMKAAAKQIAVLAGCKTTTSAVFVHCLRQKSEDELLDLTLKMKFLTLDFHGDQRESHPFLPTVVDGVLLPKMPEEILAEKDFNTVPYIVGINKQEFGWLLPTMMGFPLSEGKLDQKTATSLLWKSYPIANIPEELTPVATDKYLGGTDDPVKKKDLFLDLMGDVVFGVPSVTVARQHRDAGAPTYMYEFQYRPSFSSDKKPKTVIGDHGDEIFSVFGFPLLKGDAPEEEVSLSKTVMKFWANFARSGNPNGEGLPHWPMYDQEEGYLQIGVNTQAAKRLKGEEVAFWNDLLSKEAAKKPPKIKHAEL
- conditions: PMPMEase 1 μg, 15 min pre-incubation at 37°C, RD-PNB substrate
Task for the reader: assign each of the following compounds its reported IC50.
Give bare numbers, in nM.

INSERT INTO results (compound, valuereported) VALUES
  ('O=S(=O)(F)CCSCc1ccccc1 [Compound L-51, Benzylthioethanesulfonyl fluoride]', 47),
  ('CCCCCCCCCCSCCS(=O)(=O)F [Compound L-52, Decanylthioethanesulfonyl fluoride]', 130),
  ('CC(C)=CCC/C(C)=C/CC/C(C)=C/CSCCS(=O)(=O)F [Compound L-28]', 48);

Quick one: IC50 for O=S(=O)(F)CCSc1ccccc1 [Compound L-50, Phenylthioethanesulfonyl fluoride] ?
66
